- Assay target: DNA-dependent protein kinase catalytic subunit (Homo sapiens, UniProt P78527)
- Sequence (P78527 whole entry): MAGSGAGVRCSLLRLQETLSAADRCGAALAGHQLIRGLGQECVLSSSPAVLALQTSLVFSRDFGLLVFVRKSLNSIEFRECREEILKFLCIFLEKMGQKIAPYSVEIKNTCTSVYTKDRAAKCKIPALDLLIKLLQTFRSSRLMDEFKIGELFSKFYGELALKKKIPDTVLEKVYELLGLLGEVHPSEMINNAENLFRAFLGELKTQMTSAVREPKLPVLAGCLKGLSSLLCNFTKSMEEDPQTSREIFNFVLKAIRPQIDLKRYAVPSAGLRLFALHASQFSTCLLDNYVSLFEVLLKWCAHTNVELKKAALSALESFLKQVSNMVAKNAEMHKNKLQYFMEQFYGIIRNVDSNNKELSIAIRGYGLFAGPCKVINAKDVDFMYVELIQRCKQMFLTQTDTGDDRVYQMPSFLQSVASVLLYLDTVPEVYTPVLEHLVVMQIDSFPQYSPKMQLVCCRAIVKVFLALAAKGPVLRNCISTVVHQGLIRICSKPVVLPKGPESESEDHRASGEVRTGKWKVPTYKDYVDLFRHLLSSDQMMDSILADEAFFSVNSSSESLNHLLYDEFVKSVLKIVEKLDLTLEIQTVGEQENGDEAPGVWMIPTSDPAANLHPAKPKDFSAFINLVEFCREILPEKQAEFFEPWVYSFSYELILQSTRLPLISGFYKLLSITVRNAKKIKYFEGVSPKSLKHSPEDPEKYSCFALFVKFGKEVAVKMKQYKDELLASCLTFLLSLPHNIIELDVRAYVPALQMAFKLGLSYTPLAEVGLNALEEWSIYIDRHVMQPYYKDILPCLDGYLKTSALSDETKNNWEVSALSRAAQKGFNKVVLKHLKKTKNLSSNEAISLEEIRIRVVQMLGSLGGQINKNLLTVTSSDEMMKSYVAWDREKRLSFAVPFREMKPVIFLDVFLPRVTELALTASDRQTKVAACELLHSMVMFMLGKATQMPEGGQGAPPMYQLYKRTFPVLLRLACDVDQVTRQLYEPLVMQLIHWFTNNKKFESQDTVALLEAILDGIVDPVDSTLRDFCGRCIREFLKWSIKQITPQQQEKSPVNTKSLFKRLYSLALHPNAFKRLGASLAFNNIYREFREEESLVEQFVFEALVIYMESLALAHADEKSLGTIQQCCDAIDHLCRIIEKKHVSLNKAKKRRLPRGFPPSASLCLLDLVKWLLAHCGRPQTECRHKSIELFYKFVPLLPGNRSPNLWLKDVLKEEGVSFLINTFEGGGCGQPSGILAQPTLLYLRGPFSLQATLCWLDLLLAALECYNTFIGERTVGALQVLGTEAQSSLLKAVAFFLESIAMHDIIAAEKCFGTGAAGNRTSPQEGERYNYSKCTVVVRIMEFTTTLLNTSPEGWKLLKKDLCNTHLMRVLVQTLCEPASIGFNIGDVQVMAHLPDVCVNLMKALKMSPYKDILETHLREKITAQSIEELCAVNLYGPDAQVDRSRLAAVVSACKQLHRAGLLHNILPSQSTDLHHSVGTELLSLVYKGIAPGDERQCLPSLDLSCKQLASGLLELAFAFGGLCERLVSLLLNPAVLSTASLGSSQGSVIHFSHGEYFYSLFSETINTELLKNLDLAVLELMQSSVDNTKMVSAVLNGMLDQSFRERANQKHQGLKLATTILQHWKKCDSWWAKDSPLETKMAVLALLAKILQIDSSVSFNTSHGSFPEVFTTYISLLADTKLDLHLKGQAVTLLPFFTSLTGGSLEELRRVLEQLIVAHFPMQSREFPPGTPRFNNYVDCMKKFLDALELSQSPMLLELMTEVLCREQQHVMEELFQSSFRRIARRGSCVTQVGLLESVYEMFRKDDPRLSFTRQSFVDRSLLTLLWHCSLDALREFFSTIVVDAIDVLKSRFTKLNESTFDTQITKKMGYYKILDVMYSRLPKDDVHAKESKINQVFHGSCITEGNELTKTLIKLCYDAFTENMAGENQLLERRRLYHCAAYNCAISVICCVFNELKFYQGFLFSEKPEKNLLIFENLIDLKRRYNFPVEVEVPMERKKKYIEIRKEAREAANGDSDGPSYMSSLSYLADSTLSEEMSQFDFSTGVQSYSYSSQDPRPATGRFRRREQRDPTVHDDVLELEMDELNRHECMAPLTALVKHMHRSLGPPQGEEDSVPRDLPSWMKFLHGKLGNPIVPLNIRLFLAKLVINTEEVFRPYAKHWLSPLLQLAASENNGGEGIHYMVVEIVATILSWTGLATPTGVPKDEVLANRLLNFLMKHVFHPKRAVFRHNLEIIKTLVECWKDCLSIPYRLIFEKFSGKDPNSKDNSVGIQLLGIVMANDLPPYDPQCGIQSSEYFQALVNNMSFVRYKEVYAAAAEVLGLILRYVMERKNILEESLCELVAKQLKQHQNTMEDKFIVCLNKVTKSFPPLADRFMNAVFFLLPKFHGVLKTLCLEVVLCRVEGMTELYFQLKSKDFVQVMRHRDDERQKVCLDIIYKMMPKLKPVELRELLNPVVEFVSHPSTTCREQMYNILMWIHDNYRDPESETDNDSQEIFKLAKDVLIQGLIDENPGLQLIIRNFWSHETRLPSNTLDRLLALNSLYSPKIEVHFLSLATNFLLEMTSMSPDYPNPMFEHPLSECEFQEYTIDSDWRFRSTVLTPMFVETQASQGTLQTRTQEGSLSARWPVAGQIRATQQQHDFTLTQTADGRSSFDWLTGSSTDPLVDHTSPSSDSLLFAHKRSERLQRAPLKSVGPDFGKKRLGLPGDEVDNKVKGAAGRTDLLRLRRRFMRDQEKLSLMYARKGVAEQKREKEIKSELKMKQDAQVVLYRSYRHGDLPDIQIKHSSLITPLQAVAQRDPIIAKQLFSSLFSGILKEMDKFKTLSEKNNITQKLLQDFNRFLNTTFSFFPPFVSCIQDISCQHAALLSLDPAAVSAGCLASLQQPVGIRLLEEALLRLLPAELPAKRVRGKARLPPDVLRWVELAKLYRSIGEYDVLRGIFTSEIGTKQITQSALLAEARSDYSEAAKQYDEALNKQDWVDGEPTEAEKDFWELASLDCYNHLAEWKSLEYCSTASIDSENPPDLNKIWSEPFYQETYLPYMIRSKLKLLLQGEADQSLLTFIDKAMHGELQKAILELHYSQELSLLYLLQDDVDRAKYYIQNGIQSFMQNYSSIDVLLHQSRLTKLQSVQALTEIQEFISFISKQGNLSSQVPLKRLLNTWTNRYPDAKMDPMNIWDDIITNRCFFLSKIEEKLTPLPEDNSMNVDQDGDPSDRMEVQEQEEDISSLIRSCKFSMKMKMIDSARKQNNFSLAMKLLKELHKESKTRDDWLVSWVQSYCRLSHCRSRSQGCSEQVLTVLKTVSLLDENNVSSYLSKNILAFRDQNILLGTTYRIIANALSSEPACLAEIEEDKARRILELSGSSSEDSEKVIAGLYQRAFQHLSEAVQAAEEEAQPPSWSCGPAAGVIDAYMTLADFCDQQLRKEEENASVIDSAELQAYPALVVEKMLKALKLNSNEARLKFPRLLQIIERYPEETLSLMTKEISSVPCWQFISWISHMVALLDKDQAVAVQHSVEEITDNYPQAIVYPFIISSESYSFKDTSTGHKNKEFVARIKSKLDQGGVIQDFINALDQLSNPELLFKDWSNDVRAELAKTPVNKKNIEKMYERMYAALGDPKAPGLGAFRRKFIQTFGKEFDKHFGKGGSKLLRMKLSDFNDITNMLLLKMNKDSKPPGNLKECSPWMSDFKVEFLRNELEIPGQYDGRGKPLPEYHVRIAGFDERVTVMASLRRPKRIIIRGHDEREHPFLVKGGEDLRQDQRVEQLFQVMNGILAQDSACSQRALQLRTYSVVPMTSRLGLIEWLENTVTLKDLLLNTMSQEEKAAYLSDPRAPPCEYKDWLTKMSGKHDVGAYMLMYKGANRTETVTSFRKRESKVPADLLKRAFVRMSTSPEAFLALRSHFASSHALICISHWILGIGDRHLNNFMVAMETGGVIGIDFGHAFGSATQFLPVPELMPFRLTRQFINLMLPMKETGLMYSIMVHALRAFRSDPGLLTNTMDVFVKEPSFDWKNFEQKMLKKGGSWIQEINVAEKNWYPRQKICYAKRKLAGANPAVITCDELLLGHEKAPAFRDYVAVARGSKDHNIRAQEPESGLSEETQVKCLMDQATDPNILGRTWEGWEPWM
- Assay text: Inhibition of DNA-dependent protein kinase
pIC50: −log10 of the molar value.
Measurement name: pIC50

Would you please look over these solved cases?
| Item smiles | pIC50 |
| --- | --- |
| Cn1cncc1-c1cccc(-c2cccc3c(=O)cc(N4CCOCC4)oc23)c1 | 5.91 |
| Cc1cscc1-c1cccc(-c2cccc3c(=O)cc(N4CCOCC4)oc23)c1 | 6.19 |
| O=c1cc(N2CCOCC2)oc2c(-c3cccc(-c4ccsc4)c3)cccc12 | 7.70 |
| Nc1cc(C(=O)O)cc(-c2cccc(-c3cccc4c(=O)cc(N5CCOCC5)oc34)c2)c1 | 6.29 |
| COc1ccc(-c2cccc(-c3cccc4c(=O)cc(N5CCOCC5)oc34)c2)cc1 | 6.08 |

A: O=c1cc(N2CCOCC2)oc2c(-c3cccc(-c4cccs4)c3)cccc12
B: O=c1cc(N2CCOCC2)oc2c(-c3cccc(-c4ncccn4)c3)cccc12
C: O=c1cc(N2CCOCC2)oc2c(-c3cccc(-c4ccco4)c3)cccc12
D: N#Cc1ccc(-c2cccc(-c3cccc4c(=O)cc(N5CCOCC5)oc34)c2)cc1
Ordering: ascending pIC50. Put the labels in the order asked and list them.
B, D, C, A

P: O=c1cc(N2CCOCC2)oc2c(-c3cccc(-c4nccs4)c3)cccc12
Q: O=Cc1ccc(-c2cccc(-c3cccc4c(=O)cc(N5CCOCC5)oc34)c2)cc1
// pick larger pIC50 from pair: P vs Q Pick one; state its label.
P

1: COC(=O)c1cc(N)cc(-c2cccc(-c3cccc4c(=O)cc(N5CCOCC5)oc34)c2)c1
2: O=c1cc(N2CCOCC2)oc2c(-c3ccccc3)cccc12
Problem: Given the entries 1 and 2 , determine which has the lower reported pIC50. Pick one; state its label.
2
